# Tested on: DIPGX7 (H3.3 K27M diffuse intrinsic pontine glioma line)
# assay.explanation: growth inhibition (% activity, log2 RLU normalised to DMSO / staurosporine); higher = more growth inhibition
# conditions.used: 33 µM
measured.endpoint: growth inhibition (%)
# number only, unit % dropped from output

CCC1(c2ccccc2)C(=O)NCNC1=O :: 0.246
CN1CCN2c3ccccc3Cc3ccccc3C2C1 (configuration not stated) :: 0.702
CC(C)[C@H]1CC[C@H](C(=O)N[C@H](Cc2ccccc2)C(=O)O)CC1 :: 0.0113
Cc1nc(Nc2ncc(C(=O)Nc3c(C)cccc3Cl)s2)cc(N2CCN(CCO)CC2)n1 :: 2.53
CCCCC(=O)O[C@]1(C(=O)CO)[C@@H](C)C[C@H]2[C@@H]3CCC4=CC(=O)C=C[C@]4(C)[C@@]3(F)[C@@H](O)C[C@@]21C :: 0.933

Exercise: Suppose we examine the molecule Oc1ccc(/C=C/c2cc(O)cc(O)c2)cc1 ; what growth inhibition value has been reported?
Key: 4.05

Exercise: # get_value(readout='growth inhibition', item= CCCCCOC(=O)Nc1nc(=O)n([C@@H]2O[C@H](C)[C@@H](O)[C@H]2O)cc1F )
Key: 0.087
